# Tested on: SW-620 colon
# assay.overview: NCI tumour cell line growth inhibition, 48 h
Kindly state TGI for each of the entries shown.
Give bare numbers, in µM.

The examples below pair each entry with its known result.
Req: Kindly state the measured TGI obtained for `N#Cc1ccccc1C#C/C=C\C#Cc1ccccn1` with SW-620 colon.
Resp: 31.9

Req: Kindly state the measured TGI obtained for C#Cc1cccc(NC(=O)C2CCCCN2C(=O)CCl)c1 (stereo not drawn) with SW-620 colon.
Resp: 31.5

Req: Kindly state the measured TGI obtained for Cc1ccc(S(=O)(=O)N(CC(O)COc2ccccc2)c2ccccc2Cl)cc1 (stereo not drawn) with SW-620 colon.
Resp: 36.6

Others:
Req: Kindly state the measured TGI obtained for `O=c1oc2c(Cl)cc(Cl)cc2cc1-c1cn2c(n1)sc1ccccc12` with SW-620 colon.
Resp: 92.4

----------
# System: HCT-15 colon
# assay.overview: NCI tumour cell line growth inhibition, 48 h
Kindly state TGI for each of the entries shown.

Req: Please look up its TGI: `COc1cc(/C=C/[N+](=O)[O-])cc(OC)c1`
Resp: 6.11 µM

Req: Please look up its TGI: `COc1cc(/C=[N+](\[O-])c2ccccc2Cl)ccc1OC(=S)S`
Resp: > 100 µM

Req: Please look up its TGI: O=C(Nc1ccn(C2CCC(COC(c3ccccc3)(c3ccccc3)c3ccccc3)O2)c(=O)n1)c1ccccc1 (stereo not given)
Resp: 11.2 µM

Req: Please look up its TGI: COC1C[C@H](O[C@@H]2C[C@H](O[C@@H]3C[C@H](O[C@@H]4C(=O)c5c(cc6cc(O[C@H]7C[C@@H](O[C@H]8C[C@@H](O)[C@H](O)C(C)O8)[C@H](O)C(C)O7)c(C)c(O)c6c5O)C[C@H]4C(OC)C(=O)[C@@H](O)[C@@H](C)O)OC(C)[C@H]3O)OC(C)[C@@H]2O)OC(C)[C@@H]1O (stereo not given in full)
Resp: > 32.5 µM

Req: Please look up its TGI: `c1ccc2c(c1)CCCc1nnc3nc4ccccc4n3c1-2`
Resp: > 100 µM

Req: Please look up its TGI: `CN1C(=O)c2c(c3c4ccccc4n(C)c3c3c2c2ccccc2n3C)C1=O`
Resp: > 100 µM

Req: Please look up its TGI: C=C1[C@H](O)C[C@@H](C(C)C(O)CC=C(C)C)[C@@H](O)[C@@H]2C(C)=CC[C@@H]12 (stereo not given in full)
Resp: > 100 µM

Req: Please look up its TGI: COC(=O)C1(N2CCOCC2)CCC([C@@H](c2ccccc2)C(C)[N+](=O)[O-])C1 (stereo not given in full)
Resp: > 100 µM

Each compound below has a reported value. Please supply its TGI.
1. C=C1C(=O)OC2C=C(C)CC3C=C(CCC=C(C)CCC12)C(=O)O3 (stereo not given)
2. NC1=NN(c2ccccc2)C(=O)C1/C(=N\NC(=O)c1cc2ccccc2cc1O)C(=O)Nc1ccc(Cl)c(Cl)c1 (stereo not given)
3. COc1cccc(/C=C/C(=O)c2cc3c(N)c(C(=O)Nc4ccccc4)sc3nc2C)c1

Resp:
1. 131 µM
2. > 100 µM
3. 3.37 µM

Each compound below has a reported value. Please supply its TGI.
1. OCC1OC(NO)C(O)C(O)C1O (stereo not given)
2. C#CCN(Cc1ccc2nc(-c3ccccc3)c(Cl)nc2c1)c1ccc(Cl)c(Cl)c1

Resp:
["> 100 µM", "> 100 µM"]

Each compound below has a reported value. Please supply its TGI.
1. Cc1cc(S(=O)(=O)Nc2nc3ccccc3s2)c(SCc2ccccc2)cc1Cl
2. COc1ccc(CC2OC3(CCCCC3)CC3CCCCN32)cc1 (stereo not given)
3. C/C(COc1ccccc1)=N\NC(N)=S

Resp:
30.8 µM
> 100 µM
> 100 µM

----------
# Test system: OVCAR-3 ovarian
# assay.overview: NCI tumour cell line growth inhibition, 48 h
reported.endpoint: TGI (µM)
Give bare numbers, in µM.

The examples below pair each entry with its known result.
Req: Kindly state the measured TGI obtained for `C=C1C(=O)O[C@H]2[C@H]1CC/C(COC(=O)NCCc1ccc(Br)cc1)=C\CC[C@@]1(C)O[C@@H]21` with OVCAR-3 ovarian.
Resp: 2.27

Req: Kindly state the measured TGI obtained for `COc1cc2c(cc1OC)C/C(=N\O)c1cc(OC)c(OC)cc1/C=C\2` with OVCAR-3 ovarian.
Resp: 17.3

Req: Kindly state the measured TGI obtained for Cc1ccc(S(=O)(=O)N(CC(O)COc2ccccc2)c2ccccc2Cl)cc1 (configuration not stated) with OVCAR-3 ovarian.
Resp: 42.1

Here's the next entry for you.
Req: Kindly state the measured TGI obtained for `O=C(NNC(=O)/C(=C/c1cccc([N+](=O)[O-])c1)NC(=O)c1ccccc1)Nc1ccc(Cl)cc1` with OVCAR-3 ovarian.
Resp: 25.4

----------
# Test system: DMS 114 small cell lung
# assay.overview: NCI tumour cell line growth inhibition, 48 h
Kindly state TGI for each of the entries shown.

The examples below pair each entry with its known result.
Req: Please look up its TGI: `COC(=O)/C(=C1\OC(=O)C(c2ccc(Cl)cc2)=C1O)c1ccc(Cl)cc1`
Resp: 51.3 µM

Req: Please look up its TGI: O=C(Cn1cc(I)c(C(=O)NCC(O)CO)n1)NCC(O)CO (configuration not stated)
Resp: > 100 µM

Req: Please look up its TGI: `Nc1ccc2ncc(NCc3ccc(F)cc3)nc2c1`
Resp: > 100 µM

Req: Please look up its TGI: `O=c1[nH]c(C2CCCCC2)nc2ccc(Cl)cc12`
Resp: > 100 µM

Each compound below has a reported value. Please supply its TGI.
1. O=Cc1cc2sc(C=O)cc2s1
2. O=C1/C(=C/c2ccc(C(=O)O)cc2)CNC/C1=C\c1ccc(C(=O)O)cc1
3. Cc1c2cc[n+](C)cc2c(C)c2c1[nH]c1ccc(OC(C)(C)C)cc12

Resp:
["> 100 µM", "> 100 µM", "> 100 µM"]

Each compound below has a reported value. Please supply its TGI.
1. O/N=C1/C(=C/c2ccc(Br)cc2)CCCC1C(NO)c1ccc(Br)cc1 (configuration not stated)
2. OC(CBr)C(O)C(O)C(O)CBr (configuration not stated)
3. Nc1nc2c(nnn2C2C=C(CO)C(O)C2O)c(=O)[nH]1 (configuration not stated)
4. COc1ccc(/C=C2\CCC(C)(CN(C)C)C2=O)cc1Br (configuration not stated)
5. COc1ccc(NC(=O)CC2SC(=Nc3ccc(Cl)cc3C)NC2=O)c([N+](=O)[O-])c1 (configuration not stated)

Resp:
["29.6 µM", "> 100 µM", "> 100 µM", "51.9 µM", "> 100 µM"]

----------
# Tested on: COLO 205 colon
# assay.overview: NCI tumour cell line growth inhibition, 48 h
reported.endpoint: TGI

The examples below pair each entry with its known result.
Req: Please look up its TGI: `Clc1cc2ns[s+]c2cc1Cl`
Resp: > 100 µM

Req: Please look up its TGI: CC(=O)OC1CC[C@@]2(C)C(=CC[C@@H]3[C@@H]2CC[C@]2(C)Nc4c(cnn4-c4ccc(F)cc4)C[C@@H]32)C1 (stereo not given in full)
Resp: > 78.7 µM

Req: Please look up its TGI: C[C@H]1O[C@@H](O[C@H]2[C@@H](O)C[C@H](O[C@H]3[C@@H](O)C[C@H](O[C@H]4CC[C@]5(C)C6CC[C@]7(C)[C@@H](C8=CC(=O)OC8)CC[C@]7(O)C6CC[C@@H]5C4)O[C@@H]3C)O[C@@H]2C)C[C@H](O)[C@@H]1O (stereo not given in full)
Resp: 0.102 µM

Each molecule below has a reported value. Please supply its TGI.
1. CC(C)C(N=C1CC2CCC1(C(=O)Nc1ccccc1O)C2(C)C)c1ccccc1 (stereo not given)
2. O=C(NC1CCCCC1)N1CCNC1=S

Resp:
["> 10 µM", "> 100 µM"]

----------
# System: SR leukemia
# assay.overview: NCI tumour cell line growth inhibition, 48 h; in the data active means GI50 below about 0.43 µM; inactive means the rest
Assign a class; possible classes are active, inactive

Here are 7 compounds together with their reported answers.
Req: Which result was noted for this compound in the test: `COc1cc(/C=C/[N+](=O)[O-])cc(OC)c1`
Resp: inactive

Req: Which result was noted for this compound in the test: `COc1cccc(/C=C/C(=O)c2cc3c(N)c(C(=O)Nc4ccccc4)sc3nc2C)c1`
Resp: inactive

Req: Which result was noted for this compound in the test: `[N-]=[N+]=NCCCn1c2c(c3ccccc3c1=O)C(=O)c1cc3c(cc1-2)OCO3`
Resp: active

Req: Which result was noted for this compound in the test: `COc1ccc(N2CCN(c3nc(-c4ccccn4)nc4sc5c(c34)CCCCCC5)CC2)cc1`
Resp: inactive

Req: Which result was noted for this compound in the test: `Cn1cc(-c2nc(-c3c[nH]c4ccccc34)cs2)c2cccnc21`
Resp: active

Req: Which result was noted for this compound in the test: Nc1nc(N)c2c(n1)NC(c1ccc(Cl)cc1)C1CCc3ccccc3C1=N2 (stereo not drawn)
Resp: inactive

Req: Which result was noted for this compound in the test: `O=C(Nc1c(Cl)cccc1Cl)Oc1cccc2cccnc12`
Resp: inactive

Shifting focus to the compound that follows.
Req: Which result was noted for this compound in the test: COC1C[C@H](O[C@@H]2C[C@H](O[C@@H]3C[C@H](O[C@@H]4C(=O)c5c(cc6cc(O[C@H]7C[C@@H](O[C@H]8C[C@@H](O)[C@H](O)C(C)O8)[C@H](O)C(C)O7)c(C)c(O)c6c5O)C[C@H]4C(OC)C(=O)[C@@H](O)[C@@H](C)O)OC(C)[C@H]3O)OC(C)[C@@H]2O)OC(C)[C@@H]1O (stereo partly drawn)
Resp: active
